- tgt: cannabinoid central type (CB1) receptor (Rattus norvegicus, UniProt P20272)
- Construct: rat cerebellar membrane fraction and spleen cells were respectively used; from tissue; host or cells: rat cerebellar membrane fraction (male SD rats, 7-9 weeks old)
- Sequence (P20272 whole entry): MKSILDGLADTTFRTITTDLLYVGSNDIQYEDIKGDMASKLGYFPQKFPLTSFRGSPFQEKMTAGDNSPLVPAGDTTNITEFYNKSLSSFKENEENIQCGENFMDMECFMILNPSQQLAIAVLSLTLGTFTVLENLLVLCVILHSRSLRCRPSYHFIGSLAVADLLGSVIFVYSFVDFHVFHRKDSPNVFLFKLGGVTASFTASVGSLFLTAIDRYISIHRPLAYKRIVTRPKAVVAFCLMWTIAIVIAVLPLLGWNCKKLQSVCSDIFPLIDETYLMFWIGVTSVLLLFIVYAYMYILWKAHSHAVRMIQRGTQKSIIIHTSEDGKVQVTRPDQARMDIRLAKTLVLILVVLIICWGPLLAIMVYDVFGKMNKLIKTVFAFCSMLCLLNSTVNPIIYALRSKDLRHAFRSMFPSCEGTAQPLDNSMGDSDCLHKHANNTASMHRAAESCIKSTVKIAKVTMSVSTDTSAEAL
- measurement_protocol: Binding assay, cannabinoid central type receptor (CB1), rat cerebellar membrane fraction, [3H]Win55212-2
- test_parameters: read-out: Ki value, Central receptor (C); rat cerebellar membrane fraction, [3H]Win55212-2 2 nM, 30° C. 90 min
quantity_measured: Ki (nM)
Write it as a number; the unit nM goes unstated.

Entry CCCCCNc1cc(C(=O)NCCc2ccc(O)cc2)ccc1OC , Ki reported as 500

* * *

- tgt: cannabinoid central type (CB1) receptor (Rattus norvegicus, UniProt P20272)
- Construct: rat cerebellar membrane fraction and spleen cells were respectively used; from tissue; host or cells: rat cerebellar membrane fraction (male SD rats, 7-9 weeks old)
- measurement_protocol: Binding assay, cannabinoid central type receptor (CB1), rat cerebellar membrane fraction, [3H]Win55212-2
- test_parameters: rat cerebellar membrane fraction, [3H]Win55212-2 2 nM, 30° C. 90 min; read-out: Ki value, Central receptor (C)
quantity_measured: pKi
Hey, just a heads up that pKi is the negative log base 10 of the concentration in molar.

See these solved cases before continuing.
CCCCCOc1c(OC)ccc2c1C(=O)N(CCc1ccc(O)cc1)C2=O
6.00
CCCCCOc1c(OC)ccc2c(=O)n(CCc3ccncc3)ccc12
6.40
CCCCCOc1cc(C(=O)NCCc2ccc(O)cc2)ccc1OC
5.85
CCCCCOc1c(OC)ccc2c1CN(CCc1ccc(N)cc1)C2=O
5.89

Kindly consider the entry below.
Entry CCCCCOc1c(OC)ccc2c(=O)n(CCc3ccc(O)cc3)ccc12 , pKi reported as 6.70
